Where do these numbers come from? They come from patent US20250320312A1.

Biological target: T1, Peptide 8: Biotin-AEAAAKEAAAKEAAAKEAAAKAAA-Tyr-acid (N-terminal biotin; C-terminal acid)
T1 construct: Control peptide without PC
T1 peptide: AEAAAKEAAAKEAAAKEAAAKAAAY
Assay: scFv ELISA
Experimental: For ELISA analysis of scFv binding, 96-well polystyrene plates were coated with Peptide 1, 4, 5, 8 or 100 μL BSA (10 μg/mL) in PBS at 4° C. overnight. […] All plates were washed three times with PBS-Tween before 40 μL aliquots of PPE were added to assay plates along with 50 μL 10% BSA, and plates were incubated for 1 hour at room temperature. […] The amount of scFv bound to each well was quantitated from absorbance measurement at 450 nm (OD450).
metricName: OD450 (OD450)
Reply numerically in OD450, unit not repeated.

Please fill in: OD450 reported for PcOxP_DB03_A12 (scFv, V domains shown, scFv in periplasmic extract) VH: EVQLLESGGGLVQPGGSLRLSCAASGFTFSDGYMEWVRQAPGKGLEWVAASRNKANDYTTAYADSVKGRFTISRDNSKNTLYLQMNSLRAEDTAVYYCARDYYGSSYWYFDVWGQGTLVTVSS VL: DIVMTQSPDSLAVSLGERATINCTASESLYSSKHKVHYLAWYQQKPGQPPKLLIYGASNRYIGVPDRFSGSGSGTDFTLTISSLQAEDVAVYYCGQFYSYPLTFGGGTKVEIK = 0.05

Lab note: measured OD450 of PcOxP_DB02_F10 (scFv, V domains shown, scFv in periplasmic extract) VH: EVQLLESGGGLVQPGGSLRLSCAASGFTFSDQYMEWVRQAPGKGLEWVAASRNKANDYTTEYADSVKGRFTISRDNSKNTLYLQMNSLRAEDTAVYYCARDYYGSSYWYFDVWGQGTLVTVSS VL: DIVMTQSPDSLAVSLGERATINCTSSQSVLSSKHNKNYLAWYQQKPGQPPKLLIYGASNRYWGVPDRFSGSGSGTDFTLTISSLQAEDVAVYYCAQFYSYPLTFGGGTKVEIK was 0.04
